Numbers sourced from ChEMBL document CHEMBL3414420.

Form field: IC50 (one value per entry).
- Test system: HepG2
- Test Method Notes: Cytotoxicity against human HepG2 cells assessed as inhibition of cell proliferation after 72 hrs by MTT assay
- Assay type: functional, cell-based
- Particulars: HepG2, 72 h
Expressed in µM, but write only the number.

>>> obs_value("COc1cc(/C=C/C(=O)c2c(OC)cc(OC)cc2OC)cc(OC)c1")
9
>>> obs_value("COc1cc(O)c(CC=C(C)C)c(O)c1C(=O)/C=C/c1ccc(O)c(O)c1")
15.2
>>> obs_value("COc1cc(O)c(CC=C(C)C)c(O)c1C(=O)/C=C/c1ccc([N+](=O)[O-])cc1")
12.4
>>> obs_value("COc1ccc(/C=C/C(=O)c2c(O)cc(O)cc2OC)cc1")
18.1
>>> obs_value("COc1cc(OC)c(C(=O)/C=C/c2ccc(O)c(OC)c2)c(OC)c1")
17
>>> obs_value("COc1cc(/C=C/C(=O)c2c(OC)cc(O)c(CC=C(C)C)c2O)ccc1O")
21.7
>>> obs_value("COc1ccc(/C=C/C(=O)c2c(OC)cc(O)c(CC=C(C)C)c2O)cc1")
32.4
>>> obs_value("COc1cc(O)cc(O)c1C(=O)/C=C/c1ccc([N+](=O)[O-])cc1")
41
>>> obs_value("COc1cc(OC)c(C(=O)/C=C/c2cc(OC)c(OC)cc2OC)c(OC)c1")
23.8
>>> obs_value("COc1cc(OC)c(C(=O)/C=C/c2ccc(OC)c(OC)c2)c(OC)c1")
11.6

Measured IC50, `COc1cc(O)c(CC=C(C)C)c(O)c1C(=O)/C=C/c1ccc(C(F)(F)F)cc1` : 6.5

Please fill in: IC50 reported for `COc1cc(/C=C/C(=O)c2c(O)cc(O)cc2OC)cc(OC)c1` = 17.6

The measured IC50 associated with `COc1cc(O)cc(O)c1C(=O)/C=C/c1ccc(C(F)(F)F)cc1` reads 14.1

Lab note: measured IC50 of `COc1cc(/C=C/C(=O)c2c(O)cc(O)cc2OC)cc(OC)c1OC` was 20.4

compound `COc1cc(O)c(CC=C(C)C)c(O)c1C(=O)/C=C/c1ccc(O)cc1` , IC50 observed: 35

// `COc1cc(O)c(CC=C(C)C)c(O)c1C(=O)/C=C/c1ccc(Cl)cc1` : IC50 value = 10.1

Per the record, `COc1cc(OC)c(C(=O)/C=C/c2ccccc2OC)c(OC)c1` has IC50 of 16.3

Form field IC50, entry `COc1cc(O)cc(O)c1C(=O)/C=C/c1ccc(Cl)cc1` : 12.2

Kindly note the recorded IC50 for `COc1cc(O)cc(O)c1C(=O)/C=C/c1ccc(O)cc1` , which is 40.2
